Assay: yeast display, Sf9 membrane polyspecificity reagent, FACS + sequencing; frameworks hold sequencing errors
Experimental endpoint: polyreactivity (PSR sort gate)

{"Query sequence": "QVQLVESGGGLVQAGGSLRLSCAASGYIFVGNAMGWYRQAPGKERELVATIRSSTGNTYADSVKGRFTISRDNAKNTVYLQMNSLKPEDTAVYYCATVYELPGWGREYGYWGQGTQVTVSS", "Experimental result": "low polyreactivity"}
{"Query sequence": "QVQLVESGGGLVQAGGSLRLSCAASGSISGGYAMGWYRQAPGKERELVAVIDSGGSTYYADSVKGRFTISRDNAKNTVYLQMNSLKPEDTAVYYCNADYSSQDNFDYWGQGTQVTVSS", "Experimental result": "low polyreactivity"}
